Biological target: Dopamine receptor D2 and D3 (Rattus norvegicus, UniProt P19020+P61169)
Assay: In vitro binding affinity for D2/D3 receptors in rat striatal homogenates by [125I]NCQ298 displacement.

# compound, Ki
data = [
    ("CN1CC2(CCN(CCCC(=O)c3ccc(F)cc3)CC2)c2ccccc21", "56.5 nM"),
    ("OC(CN1C2CCC1CC(c1ccccc1)C2)c1ccc(Br)cc1 (stereo unspecified)", "5092 nM"),
    ("O[C@@H](CN1CCC2(CCc3ccccc32)CC1)c1cccc(Br)c1", "> 1000 nM"),
    ("O[C@@H]1CCN(Cc2ccc(F)cc2)C[C@H]1N1CCC2(CCc3ccccc32)CC1", "> 1000 nM"),
    ("CN1CC2(CCN(C[C@H](O)c3cccc(Br)c3)CC2)c2ccccc21", "> 1000 nM"),
    ("CN1CC2(CCN([C@@H]3Cc4ccccc4C[C@H]3O)CC2)c2ccccc21", "> 1000 nM"),
    ("O[C@H]1CCN(Cc2ccc(F)cc2)C[C@@H]1N1C2CCC1CC(c1ccccc1)C2 (stereo partly specified)", "8795 nM"),
    ("CN1CC2(CCN([C@@H]3CN(Cc4cccc(I)c4)CC[C@H]3O)CC2)c2ccccc21", "> 1000 nM"),
    ("O[C@H](Cc1ccc(Br)cc1)CN1CCC2(CCc3ccccc32)CC1", "> 1000 nM"),
    ("O[C@@H]1CCN(Cc2cccc(I)c2)C[C@H]1N1CCC2(CCc3ccccc32)CC1", "> 1000 nM"),
    ("O[C@H]1CCCC[C@@H]1N1C2CCC1CC(c1ccccc1)C2 (stereo partly specified)", "> 38000 nM"),
    ("O[C@@H]1CCCC[C@H]1N1CCC2(CCc3ccccc32)CC1", "> 1000 nM"),
    ("O[C@H]1CCN(Cc2cccc(I)c2)C[C@@H]1N1C2CCC1CC(c1ccccc1)C2 (stereo partly specified)", "1967 nM"),
    ("O=C(CCCN1C2CCC1CC(c1ccccc1)C2)c1ccc(F)cc1 (stereo unspecified)", "16.3 nM"),
    ("O[C@@H]1Cc2ccccc2C[C@H]1N1CCC2(CCc3ccccc32)CC1", "> 1000 nM"),
    ("CN1CC2(CCN([C@@H]3CN(Cc4ccc(F)cc4)CC[C@H]3O)CC2)c2ccccc21", "> 1000 nM"),
    ("O[C@H]1Cc2ccccc2C[C@@H]1N1C2CCC1CC(c1ccccc1)C2 (stereo partly specified)", "3385 nM"),
    ("CN1CC2(CCN(C[C@H](O)Cc3ccc(Br)cc3)CC2)c2ccccc21", "> 1000 nM"),
    ("OC(CN1C2CCC1CC(c1ccccc1)C2)c1cccc(Br)c1 (stereo unspecified)", "2658 nM"),
    ("OC(Cc1ccc(Br)cc1)CN1C2CCC1CC(c1ccccc1)C2 (stereo unspecified)", "1490 nM"),
    ("CN1CC2(CCN([C@@H]3CCCC[C@H]3O)CC2)c2ccccc21", "> 1000 nM"),
]

* * *

Biological target: Sodium-dependent serotonin transporter (Rattus norvegicus)
Sequence (P31652 whole entry): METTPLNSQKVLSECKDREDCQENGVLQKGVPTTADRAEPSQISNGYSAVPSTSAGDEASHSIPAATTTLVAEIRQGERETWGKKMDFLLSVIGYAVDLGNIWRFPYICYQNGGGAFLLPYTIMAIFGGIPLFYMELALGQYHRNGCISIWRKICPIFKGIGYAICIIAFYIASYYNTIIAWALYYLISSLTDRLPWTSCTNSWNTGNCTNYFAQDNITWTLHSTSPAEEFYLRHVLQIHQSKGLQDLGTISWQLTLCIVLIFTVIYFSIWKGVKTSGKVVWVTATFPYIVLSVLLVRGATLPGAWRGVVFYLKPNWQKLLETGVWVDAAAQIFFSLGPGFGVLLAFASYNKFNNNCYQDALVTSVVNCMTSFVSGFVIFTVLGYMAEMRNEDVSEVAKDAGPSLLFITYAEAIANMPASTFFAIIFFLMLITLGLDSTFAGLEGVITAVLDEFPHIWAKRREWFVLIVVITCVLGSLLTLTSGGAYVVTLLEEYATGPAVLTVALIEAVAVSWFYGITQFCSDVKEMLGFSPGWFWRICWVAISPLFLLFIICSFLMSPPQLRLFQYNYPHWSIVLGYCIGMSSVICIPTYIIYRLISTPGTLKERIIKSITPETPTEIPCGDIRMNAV
Test: Binding affinity for serotonin transporter was determined in rat cortical membrane
Format: cell membranes
pKi: −log10 of the molar value.

# compound, measurementTarget, pKi
records = [
    ("O[C@H]1CCCC[C@@H]1N1C2CCC1CC(c1ccccc1)C2 (stereo partly drawn)", "Sodium-dependent serotonin transporter (Rattus norvegicus)", 5.47),
    ("OC(Cc1ccc(Br)cc1)CN1C2CCC1CC(c1ccccc1)C2 (stereo not drawn)", "Sodium-dependent serotonin transporter (Rattus norvegicus)", 6.63),
    ("O[C@H]1Cc2ccccc2C[C@@H]1N1C2CCC1CC(c1ccccc1)C2 (stereo partly drawn)", "Sodium-dependent serotonin transporter (Rattus norvegicus)", 5.77),
]
